target-or-system: CETP (Homo sapiens)
Sequence (P11597 18-493): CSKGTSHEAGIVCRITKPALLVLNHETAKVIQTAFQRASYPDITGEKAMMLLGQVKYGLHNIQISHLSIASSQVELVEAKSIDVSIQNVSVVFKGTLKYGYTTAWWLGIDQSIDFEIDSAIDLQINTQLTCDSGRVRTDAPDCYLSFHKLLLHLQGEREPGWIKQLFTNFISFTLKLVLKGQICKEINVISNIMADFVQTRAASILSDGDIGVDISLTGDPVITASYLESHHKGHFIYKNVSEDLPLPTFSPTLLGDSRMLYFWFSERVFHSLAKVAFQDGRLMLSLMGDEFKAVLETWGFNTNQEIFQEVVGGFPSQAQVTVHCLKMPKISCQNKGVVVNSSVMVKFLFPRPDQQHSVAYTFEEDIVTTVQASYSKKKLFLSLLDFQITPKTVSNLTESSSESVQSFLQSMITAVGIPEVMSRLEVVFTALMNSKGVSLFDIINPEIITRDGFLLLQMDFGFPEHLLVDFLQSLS
run-description: In vitro CETP activity inhibitory effect in whole plasma
run-parameters: plasma from healthy subjects containing [3H]CE-HDL3, incubated 4 hours at 37° C.; read-out: CETP activity inhibition in whole plasma IC50
result-type: IC50 (µM)
Give the quantity in µM, number only.

Given the molecule CC(C)CCC1(C(=O)Nc2ccccc2SC(=O)c2cccnc2)CCCCC1 , what is its reported IC50? 4

Would you kindly share the measured IC50 for CC(C)CCC1(C(=O)Nc2cc(Cl)c(Cl)cc2SC(=O)NC(C)(C)C)CCCC1 ? 7

Find the recorded IC50 belonging to CC(C)CCC1(C(=O)Nc2cc(Cl)c(Cl)cc2SC(=O)C(C)(C)C)CCCCCC1 and report it. 74

Could you tell me which IC50 is on file for CC(C)CC(C(=O)Nc1cc(Cl)c(Cl)cc1SC(=O)C(C)(C)C)C1CCCCC1 (stereo not drawn) ? 42

IC50 lookup needed for CC(=O)N[C@@H](C(=O)Sc1ccccc1NC(=O)C1(C)CCCCC1)c1ccccc1 , thanks. 20

Item CC(=O)N[C@@H](CCC(N)=O)C(=O)Sc1ccccc1NC(=O)C1(CCC(C)C)CCCCC1 has what recorded IC50? 7

// lookup IC50 for CC(C)(C)C(=O)Nc1ccccc1SC(=O)CCCc1ccccc1 33

For the molecule shown here, CCC(CC)CC1(C(=O)Nc2ccccc2SC(=O)COC)CCCCC1 , give the reported IC50. 4

Form field: reported IC50 of CC(=O)N[C@H](C(=O)Sc1ccccc1NC(=O)C1(C)CCCCC1)c1ccccc1 22

Give its IC50 value. Item: CCCCCC1(C(=O)Nc2cc(Cl)c(Cl)cc2SC(=O)C(C)(C)C)CCCCC1 6

// lookup IC50 for CC1(C(=O)Nc2ccc(F)cc2S)CCCCC1 18

Any idea what IC50 was measured for CC(=O)N[C@@H](C)C(=O)Sc1ccccc1NC(=O)C1(CCC(C)C)CCCCC1 ? 9

Would you kindly share the measured IC50 for CC(C)(C)C(=O)Sc1ccc(Cl)cc1NC(=O)C1(C)CCCCC1 ? 28

Which IC50 is reported for this molecule? CCCC(CCC)C(=O)Nc1ccccc1SSc1ccccc1NC(=O)C(CCC)CCC 3

GET /values?readout=IC50&item= CC(C)(C)OC(=O)Nc1ccccc1CC(=O)Sc1ccccc1NC(=O)C1(C)CCCCC1 21

Sample CC(C)CCC1(C(=O)Nc2ccccc2SC(=O)[C@@H]2CCCN2C(=O)c2ccccc2)CCCCC1 — what was its IC50? 10

Endpoint output: IC50 of CC(C)(C)C(=O)Sc1cc(Cl)c(Cl)cc1NC(=O)[C@@]12CCCC[C@@H]1CCC2 . Value? 12

Which IC50 is reported for this molecule? CC(C)(C)C(=O)Sc1cc(Cl)c(Cl)cc1NC(=O)C1(C2CC2)CCCCC1 9

Which IC50 is reported for this molecule? CC(=O)N[C@H](C(=O)Sc1ccccc1NC(=O)C1(CCC(C)C)CCCCC1)C(C)C 13

Given the molecule CC(C)CC1(C(=O)Nc2ccccc2S)CCCCC1 , what is its reported IC50? 6

Requested field: IC50. Item: CC(C)(C)C(=O)Sc1cc(F)c(F)cc1NC(=O)C1(C)CCCCC1 27

Return reported IC50; argument: CC(C)CCC1(C(=O)Nc2ccccc2SSCC2CCCO2)CCCCC1 (stereo not drawn) 5

Field request: IC50 | item: CC(C)CCC1(C(=O)Nc2ccccc2SC(=O)[C@@H]2CCC(=O)N2)CCCCC1 6

Quick one: IC50 for CC(C)C1(C(=O)Nc2cc(Cl)c(Cl)cc2SC(=O)C(C)(C)C)CCCCC1 ? 7

Consider the molecule shown here: CCC[C@H]1CC[C@H](C(=O)Nc2cc(Cl)c(Cl)cc2SC(=O)C(C)(C)C)CC1 What is its recorded IC50? 19

Recorded IC50 for CCNC(=O)Sc1ccccc1NC(=O)C1(CCC(C)C)CCCCC1 , please? 6

Value lookup for IC50; key = CC(C)CCC1(C(=O)Nc2ccccc2SC(=O)C(c2ccccc2)c2ccccc2)CCCCC1 29

Looking for the measured IC50 of CC(C)(C)C(=O)Nc1ccccc1SC(=O)CCc1ccccc1 , can you help? 30

Entry CC(=O)N[C@@H](Cc1ccccc1)C(=O)Sc1cc(Cl)c(Cl)cc1NC(=O)C1(C)CCCCC1 : reported IC50 = ? 23

Would you mind telling me what IC50 value was observed for CC(C)(C)C(=O)Sc1cc(Cl)c(Cl)cc1NC(=O)C1(CC2CC2)CCCCC1 ? 4
